experiment: refractive index (Na D-line) (dimensionless); details: 358.15 K; 101.33 kPa; Liquid; Standard Abbe refractometry
Property: refractive index

>>> df
                                    compound  observed_value
 0         CCOC(=O)c1ccccc1 [ethyl benzoate]         1.47526
 1  CCCC(=O)OCCC(C)C [3-methylbutyl butanoate]         1.38139
 2  CCOC(=O)c1ccccc1O [ethyl 2-hydroxybenzoate]         1.49296
 3  CCOC(=O)CC(C)C [ethyl 3-methylbutanoate]         1.36524
 4         CCCCCCCC(=O)OCC [ethyl octanoate]         1.38974
 5   CCOC(=O)Cc1ccccc1 [ethyl phenylacetate]         1.46747
 6           CCCCCC(=O)OCC [ethyl hexanoate]         1.37768
 7  CC(=O)OCCC(C)C [3-methylbutyl ethanoate]         1.36995
 8    CCOC(=O)CC(C)=O [ethyl 3-oxobutanoate]         1.39061
 9       CC(=O)OCc1ccccc1 [benzyl ethanoate]         1.47233
10         COC(=O)c1ccccc1 [methyl benzoate]         1.48624
11     CCC(=O)OCc1ccccc1 [benzyl propanoate]         1.46768
